target: human recombinant 15-PGDH (Homo sapiens); assay: Recombinant 15-PGDH enzymatic inhibition assay (PGDH-Lumi, NADH signal); conditions: recombinant 15-PGDH; 15 min pre-incubation, 60 min reaction with PGE2 and NAD+, NADH signal
Sequence (P15428 whole entry): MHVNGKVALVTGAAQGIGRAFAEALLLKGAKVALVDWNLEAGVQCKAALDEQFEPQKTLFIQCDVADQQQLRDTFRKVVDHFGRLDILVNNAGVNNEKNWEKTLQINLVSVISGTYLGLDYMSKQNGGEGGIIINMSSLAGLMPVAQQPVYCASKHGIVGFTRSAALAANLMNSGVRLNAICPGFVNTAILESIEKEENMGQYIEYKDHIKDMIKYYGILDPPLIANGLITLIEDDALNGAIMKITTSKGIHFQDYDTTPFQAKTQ
Would you mind telling me the reported log10 of IC50 of each entry?
Friendly reminder: values = log10 of IC50, unit nM.

Ask | # return recorded log10 of IC50 for input OC1(c2cc3ccc(-c4cnc5[nH]nnc5c4)nc3s2)CC(F)(F)C1 [Compound C55]
Reply | -0.09

Ask | # return recorded log10 of IC50 for input Cn1cc2cc(-c3ccc4cc([C@H](O)[C@@H]5CCC5(F)F)sc4n3)cnc2n1 (single isomer, unassigned) [Compound B94RS]
Reply | -0.49

Ask | # return recorded log10 of IC50 for input OC1(c2cc3ccc(-c4cnc5[nH]cnc5c4)nc3s2)CC(F)(F)C1 [Compound C41]
Reply | 0.09

Ask | # return recorded log10 of IC50 for input Cc1cn2ncc(-c3ccc4cc([C@]5(O)C[C@@H](C(F)F)C5)sc4n3)cc2n1 [Compound C92C]
Reply | 0.16

Ask | # return recorded log10 of IC50 for input Cn1cc2cc(-c3ccc4sc([C@]5(O)C[C@@H](C(F)F)C5)cc4n3)cnc2n1 [Compound C84C]
Reply | 0.89

State the recorded log10 of IC50 for every item in the following list.
1. Cn1cc2cc(-c3ccc4cc([C@H](O)CCC(F)(F)F)sc4c3)cnc2n1 (single isomer, unassigned) [Compound B60R]
2. Cn1nnc2cc(-c3ccc4nc([C@]5(O)C[C@@H](C(F)F)C5)sc4n3)cnc21 [Compound C82C]
3. Cn1cc2cc(-c3ccc4ccc(C5(O)CC(C)(C)C5)cc4n3)cnc2n1 [Compound D2]
4. COCCC(O)(c1cc2ccc(-c3cnc4nn(C)cc4c3)nc2s1)C(F)(F)F (stereo not drawn) [Compound C3]

Reply |
1: 0.07; 2: 0.98; 3: 2.73; 4: 2.91

State the recorded log10 of IC50 for every item in the following list.
1. Cn1cc2cc(-c3ncc4cc([C@]5(O)C[C@@]6(CC6(F)F)C5)sc4n3)cnc2n1 (single isomer, unassigned) [Compound C114T]
2. Cn1cc2cc(-c3ccc4cc([C@]5(O)CCC5(C)C)sc4n3)cnc2n1 (single isomer, unassigned) [Compound C65S]

Reply |
1. -0.31
2. 3.30

State the recorded log10 of IC50 for every item in the following list.
1. CC(C)n1ncc2cc(-c3ccc4cc([C@@H](O)C5CC(F)(F)C5)sc4n3)cnc21 (single isomer, unassigned) [Compound B65S]
2. Cn1cc2cc(-c3ccc4c(Cl)c([C@]5(O)C[C@@H](C(F)(F)F)C5)sc4n3)cnc2n1 [Compound C75C]
3. Cn1cc2cc(-c3cnc4cc([C@@H](O)C5CC(F)(F)C5)sc4c3)cnc2n1 (single isomer, unassigned) [Compound B78S]
4. O[C@]1(c2cc3cnc(-c4cccnc4)nc3s2)C[C@H](C(F)(F)F)C1 [Compound C122C]

Reply |
[1.36, -0.15, 2.95, 0.83]

====

molecular target: 15-PGDH in A549 cells (Homo sapiens); construct: endogenous in cells; host or cells: A549; experiment: A549 cellular 15-PGDH assay (PGE2 accumulation, HTRF); format: cell-based; conditions: interleukin-stimulated, inhibitor 24 hrs, PGE2 by competitive HTRF, read-out: A549 Cell Assay IC50
Sequence (P15428 whole entry): as above
endpoint: IC50 (pM)
Give bare numbers, in pM.

Ask | Supply IC50 measured with 15-PGDH in A549 cells (Homo sapiens) for Cn1cc2cc(-c3ccc4sc([C@]5(O)C[C@@H](OC(F)(F)F)C5)cc4n3)cnc2n1 [Compound C117C] .
Reply | 1460

Ask | Supply IC50 measured with 15-PGDH in A549 cells (Homo sapiens) for CC(C)n1ncc2cc(-c3ccc4cc(C(O)C5CC(F)(F)C5)sc4n3)cnc21 (centres unmarked) [Compound B65] .
Reply | 437

Ask | Supply IC50 measured with 15-PGDH in A549 cells (Homo sapiens) for [2H][C@@](O)(c1cc2ccc(-c3cnc4nn(C)cc4c3)nc2s1)C1CC(F)(F)C1 (single isomer, unassigned) [Compound B79S] .
Reply | 370

Ask | Supply IC50 measured with 15-PGDH in A549 cells (Homo sapiens) for CO[C@H]1C[C@H]([C@@H](O)c2cc3ccc(-c4cnc5nn(C)cc5c4)nc3s2)C1 (single isomer, unassigned) [Compound B88RT] .
Reply | 511

Ask | Supply IC50 measured with 15-PGDH in A549 cells (Homo sapiens) for CCn1cc2cc(-c3ccc4cc([C@]5(O)C[C@@H](C(F)F)C5)sc4n3)cnc2n1 [Compound C87C] .
Reply | 842

Ask | Supply IC50 measured with 15-PGDH in A549 cells (Homo sapiens) for CCC(O)c1cc2ccc(-c3cnc4nn(C)cc4c3)nc2s1 (centres unmarked) [Compound B22] .
Reply | 1290

State the recorded IC50 for every item in the following list.
1. [2H][C@](O)(c1cc2ccc(-c3cnc4nn(C)cc4c3)nc2s1)C1CC(F)(F)C1 (single isomer, unassigned) [Compound B79R]
2. Cn1cc2cc(-c3ncc4cc([C@]5(O)C[C@@]6(CC6(F)F)C5)sc4n3)cnc2n1 (single isomer, unassigned) [Compound C114T]
3. Cn1cc2cc(-c3ccc4cc([C@@H](O)[C@@H]5CC5(F)F)sc4n3)cnc2n1 (single isomer, unassigned) [Compound B85SS]
4. Cc1c2ccc(-c3cnc4nn(C)cc4c3)nc2sc1[C@]1(O)C[C@@H](C(F)F)C1 [Compound C83C]
5. Cn1cc2cc(-c3ccc4cc([C@H](O)C56CC(C5)C6)sc4n3)cnc2n1 (single isomer, unassigned) [Compound B87R]
6. Cn1cc2cc(-c3ccc4cc([C@H](O)C56CC(C(F)(F)F)(C5)C6)sc4n3)cnc2n1 (single isomer, unassigned) [Compound B91R]
7. Cn1cc2cc(-c3ncc4nc([C@]5(O)C[C@@H](C(F)F)C5)sc4n3)cnc2n1 [Compound C109C]

Reply |
1. 9.4
2. 669
3. 2830
4. 12300
5. 667
6. 1090
7. 8480

Ask | Supply IC50 measured with 15-PGDH in A549 cells (Homo sapiens) for Cn1cc2cc(-c3ccc4c(Cl)c([C@]5(O)C[C@@H](C(F)(F)F)C5)sc4n3)cnc2n1 [Compound C75C] .
Reply | 1070

Measured values drawn from patent US20240409557A1 for this set.
